List of IC50 values.
Target: androgen receptor (AR) (Homo sapiens, UniProt P10275, T878A)
Construct: endogenous in cells
Sequence (P10275 whole entry T878A): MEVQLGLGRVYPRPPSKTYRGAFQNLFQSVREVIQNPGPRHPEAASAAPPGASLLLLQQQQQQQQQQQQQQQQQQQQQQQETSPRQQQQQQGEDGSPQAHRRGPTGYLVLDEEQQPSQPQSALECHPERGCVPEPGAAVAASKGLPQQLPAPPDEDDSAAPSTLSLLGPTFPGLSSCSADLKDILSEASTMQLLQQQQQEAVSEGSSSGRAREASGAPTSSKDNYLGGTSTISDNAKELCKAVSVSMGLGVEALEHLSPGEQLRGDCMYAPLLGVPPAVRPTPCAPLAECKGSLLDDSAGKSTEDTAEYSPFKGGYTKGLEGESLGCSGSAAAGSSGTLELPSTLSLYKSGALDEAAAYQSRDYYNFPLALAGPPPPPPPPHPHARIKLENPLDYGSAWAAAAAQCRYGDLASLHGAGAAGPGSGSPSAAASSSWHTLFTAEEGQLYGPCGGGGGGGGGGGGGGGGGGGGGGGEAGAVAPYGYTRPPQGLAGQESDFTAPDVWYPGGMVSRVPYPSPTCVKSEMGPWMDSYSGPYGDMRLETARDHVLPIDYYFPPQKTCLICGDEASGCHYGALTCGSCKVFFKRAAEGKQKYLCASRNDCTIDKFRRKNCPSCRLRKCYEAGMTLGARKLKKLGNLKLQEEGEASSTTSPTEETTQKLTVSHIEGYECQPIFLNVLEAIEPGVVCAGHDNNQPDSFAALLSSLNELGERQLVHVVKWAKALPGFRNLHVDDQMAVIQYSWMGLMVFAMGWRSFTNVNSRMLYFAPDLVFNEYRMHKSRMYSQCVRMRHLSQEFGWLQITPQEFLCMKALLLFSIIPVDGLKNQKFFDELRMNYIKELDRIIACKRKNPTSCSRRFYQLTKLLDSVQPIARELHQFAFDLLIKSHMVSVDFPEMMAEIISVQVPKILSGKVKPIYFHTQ
Assay: Androgen-induced PSA-luciferase assay, Luciferase Assay A (LNCaP transiently transfected with PSA (6.1 kb)-luciferase reporter)
Settings: LNCaP cells, 1 h pretreatment, R1881 (1 nM) 24 h, read-out: PSA-Luc IC50 Range

Solved entries:
> print(dat)
                               given.smiles                            assayed.target  observed.property        observed
1  CC(C)(c1ccc(OCc2ccnc(NS(C)(=O)=O)n2)cc1)c1cc(Cl)c(OCC2CC2)c(C#N)c1  androgen receptor (AR) (Homo sapiens, UniProt P10275, T878A)               IC50  500 to 2000 nM
2  CC(C)(c1ccc(OCc2ccnc(NS(C)(=O)=O)n2)cc1)c1cc(Cl)c(CCCl)c(C#N)c1  androgen receptor (AR) (Homo sapiens, UniProt P10275, T878A)               IC50  500 to 2000 nM
3  CS(=O)(=O)NCC1CN(c2ncc(-c3ccc(Oc4cc(Cl)c(OCCCl)c(C#N)c4)cc3)cn2)C1  androgen receptor (AR) (Homo sapiens, UniProt P10275, T878A)               IC50        < 500 nM
4  CC(C)(C)OC(=O)N1CCN(Cc2cc(C(C)(C)c3cc(Cl)c(OCCCl)c(C#N)c3)ccc2OCc2ccnc(NS(C)(=O)=O)n2)CC1  androgen receptor (AR) (Homo sapiens, UniProt P10275, T878A)               IC50  500 to 2000 nM
5  CC(C)(c1ccc(OCC2CC3(C2)CN(S(C)(=O)=O)C3)cc1)c1cc(Cl)c(OCCCl)c(C#N)c1  androgen receptor (AR) (Homo sapiens, UniProt P10275, T878A)               IC50  500 to 2000 nM
6  CC(C)(c1ccc(OC[C@]2(F)C[C@H](NS(C)(=O)=O)C2)cc1)c1cc(Cl)c(OCCCl)c(C#N)c1  androgen receptor (AR) (Homo sapiens, UniProt P10275, T878A)               IC50       > 2000 nM

Now let's try a different one.
Lookup: Which IC50 value belongs to CC(C)(c1ccc(OCc2ccnc(NS(=O)(=O)c3ccoc3)n2)cc1)c1cc(Cl)c(OCCCl)c(C#N)c1 ?
Found: 500 to 2000 nM
